Consider the following molecules; for each one, report its DC50.
Biological target: androgen receptor (Homo sapiens, UniProt P10275, T878A)
Construct: host or cells: LNCaP.FGC
Sequence (P10275 whole entry T878A): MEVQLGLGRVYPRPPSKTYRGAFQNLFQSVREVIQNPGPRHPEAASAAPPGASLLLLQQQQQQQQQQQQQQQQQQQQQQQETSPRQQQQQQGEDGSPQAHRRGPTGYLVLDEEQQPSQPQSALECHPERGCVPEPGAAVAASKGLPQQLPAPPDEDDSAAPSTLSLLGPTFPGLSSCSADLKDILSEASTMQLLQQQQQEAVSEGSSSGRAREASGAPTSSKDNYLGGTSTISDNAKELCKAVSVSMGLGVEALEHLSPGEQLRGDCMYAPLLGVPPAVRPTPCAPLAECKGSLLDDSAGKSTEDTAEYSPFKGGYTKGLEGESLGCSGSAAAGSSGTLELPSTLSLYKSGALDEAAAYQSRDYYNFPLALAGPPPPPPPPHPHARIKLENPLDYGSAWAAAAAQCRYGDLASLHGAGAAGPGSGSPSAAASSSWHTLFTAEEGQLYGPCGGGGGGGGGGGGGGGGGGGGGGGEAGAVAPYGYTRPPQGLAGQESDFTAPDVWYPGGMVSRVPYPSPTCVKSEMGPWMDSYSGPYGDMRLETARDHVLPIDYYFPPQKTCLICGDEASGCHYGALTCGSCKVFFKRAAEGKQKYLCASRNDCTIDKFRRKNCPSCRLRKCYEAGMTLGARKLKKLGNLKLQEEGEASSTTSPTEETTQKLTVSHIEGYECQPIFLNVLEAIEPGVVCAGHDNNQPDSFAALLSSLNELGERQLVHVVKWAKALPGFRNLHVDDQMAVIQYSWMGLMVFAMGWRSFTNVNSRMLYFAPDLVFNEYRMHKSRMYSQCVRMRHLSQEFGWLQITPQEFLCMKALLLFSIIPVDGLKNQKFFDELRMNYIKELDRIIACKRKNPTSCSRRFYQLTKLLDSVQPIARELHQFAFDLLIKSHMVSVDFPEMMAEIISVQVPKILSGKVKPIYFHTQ
Sequence (Q96SW2 whole entry partner): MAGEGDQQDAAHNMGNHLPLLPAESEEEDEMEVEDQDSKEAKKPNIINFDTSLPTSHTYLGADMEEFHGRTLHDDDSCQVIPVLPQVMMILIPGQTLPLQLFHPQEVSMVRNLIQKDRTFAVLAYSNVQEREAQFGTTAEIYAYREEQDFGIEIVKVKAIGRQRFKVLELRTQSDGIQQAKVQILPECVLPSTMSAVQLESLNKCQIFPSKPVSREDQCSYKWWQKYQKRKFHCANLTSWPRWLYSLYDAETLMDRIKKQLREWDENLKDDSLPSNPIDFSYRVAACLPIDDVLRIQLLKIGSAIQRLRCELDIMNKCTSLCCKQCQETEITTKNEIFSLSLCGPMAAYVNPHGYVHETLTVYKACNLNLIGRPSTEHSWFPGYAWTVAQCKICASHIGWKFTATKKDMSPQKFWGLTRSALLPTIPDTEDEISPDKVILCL
Test: Androgen receptor degradation assay using Western blot analysis
Type: cell-based
Conditions: read-out: AR DC50 (concentration needed for 50% AR degradation); LNCaP.FGC cells, serial 10x dilutions from 100 nM

Form field DC50 for item CCn1c2c(c3ccc(OCCN4CC=C(c5ccc(C(=O)N[C@H]6CC[C@H](N(C)c7ccc(C#N)c(Cl)c7)CC6)nn5)CC4)cc31)C(=O)N(C1CCC(=O)NC1=O)C2=O (stereo partly drawn) on androgen receptor (Homo sapiens, UniProt P10275, T878A): 25 to 100 nM

Result for CCn1c2c(c3ccc(OCC(=O)N4CCC5(CCN(c6ccc(C(=O)N[C@H]7CC[C@H](Oc8ccc(C#N)c(Cl)c8)CC7)nn6)C5)C4)cc31)C(=O)N(C1CCC(=O)N(CO)C1=O)C2=O (stereo partly drawn) , tested on androgen receptor (Homo sapiens, UniProt P10275, T878A), DC50: 25 to 100 nM

// DC50 (androgen receptor (Homo sapiens, UniProt P10275, T878A)) for CCn1c2c(c3ccc(OCC(=O)N4CCN(c5ccc(C(=O)N[C@H]6CC[C@H](Oc7ccc(C#N)c(Cl)c7)CC6)nn5)CC4)cc31)C(=O)N(C1CCC(=O)N(CO)C1=O)C2=O (stereo partly drawn) = 25 to 100 nM

---

Target: androgen receptor (Homo sapiens, UniProt P10275, T878A)
Construct: host or cells: LNCaP.FGC
Assay: Androgen receptor degradation assay using Western blot analysis
Format: cell-based
Conditions: 24 h, LNCaP.FGC cells, 100 nM, 24 hr, normalized to GAPDH, untreated cells = 100%; read-out: Androgen Receptor Remaining (%)
Answer each item with its documented remaining activity at 0.1 µM.
Give just the numeric value; % need not be written.

Cn1c2c(c3ccc(NC(=O)CN4CCN(c5ccc(C(=O)N[C@H]6CC[C@H](Oc7ccc(C#N)c(Cl)c7)CC6)cn5)CC4)cc31)C(=O)N(C1CCC(=O)NC1=O)C2=O (some centres unmarked) yielded remaining activity at 0.1 µM of 100

Lookup result for Cn1c2c(c3cc(OCCN4CCN(c5ccc(C(=O)N[C@H]6C(C)(C)[C@H](Oc7ccc(C#N)c(Cl)c7)C6(C)C)cc5)CC4)ccc31)C(=O)N(C1CCC(=O)NC1=O)C2=O (some centres unmarked) ; measured remaining activity at 0.1 µM: 106

Query Cn1c2c(c3ccc(NC(=O)CN4CCN(c5ccc(C(=O)N[C@H]6C(C)(C)[C@H](Oc7ccc(C#N)c(Cl)c7)C6(C)C)cn5)CC4)cc31)C(=O)N(C1CCC(=O)NC1=O)C2=O (some centres unmarked) yields remaining activity at 0.1 µM of 30

Query Cn1c2c(c3ccc(OCCCN4CCCN(c5ccc(C(=O)N[C@H]6CC[C@H](Oc7ccc(C#N)c(Cl)c7)CC6)nn5)CC4)cc31)C(=O)N(C1CCC(=O)NC1=O)C2=O (some centres unmarked) yields remaining activity at 0.1 µM of 21

remaining activity at 0.1 µM reported for this molecule Cn1c2c(c3ccc(OCCN4CCN(c5ccc(C(=O)N[C@H]6CC[C@H](Oc7ccc(C#N)c(Cl)c7)CC6)nn5)CC4)cc31)C(=O)N(C1CCC(=O)NC1=O)C2=O (some centres unmarked) : 32
